biological target: F508del (Homo sapiens, UniProt P13569, DEL508-508); construct: expressed in transfected cells; test: Protocol 1: membrane potential optical assay (FLIPR III, voltage sensing dye), identification of potentiator compounds; type: cell-based; conditions: Table 3, compounds of Table 1
Sequence (P13569 with tags, fused parts or gaps DEL508-508): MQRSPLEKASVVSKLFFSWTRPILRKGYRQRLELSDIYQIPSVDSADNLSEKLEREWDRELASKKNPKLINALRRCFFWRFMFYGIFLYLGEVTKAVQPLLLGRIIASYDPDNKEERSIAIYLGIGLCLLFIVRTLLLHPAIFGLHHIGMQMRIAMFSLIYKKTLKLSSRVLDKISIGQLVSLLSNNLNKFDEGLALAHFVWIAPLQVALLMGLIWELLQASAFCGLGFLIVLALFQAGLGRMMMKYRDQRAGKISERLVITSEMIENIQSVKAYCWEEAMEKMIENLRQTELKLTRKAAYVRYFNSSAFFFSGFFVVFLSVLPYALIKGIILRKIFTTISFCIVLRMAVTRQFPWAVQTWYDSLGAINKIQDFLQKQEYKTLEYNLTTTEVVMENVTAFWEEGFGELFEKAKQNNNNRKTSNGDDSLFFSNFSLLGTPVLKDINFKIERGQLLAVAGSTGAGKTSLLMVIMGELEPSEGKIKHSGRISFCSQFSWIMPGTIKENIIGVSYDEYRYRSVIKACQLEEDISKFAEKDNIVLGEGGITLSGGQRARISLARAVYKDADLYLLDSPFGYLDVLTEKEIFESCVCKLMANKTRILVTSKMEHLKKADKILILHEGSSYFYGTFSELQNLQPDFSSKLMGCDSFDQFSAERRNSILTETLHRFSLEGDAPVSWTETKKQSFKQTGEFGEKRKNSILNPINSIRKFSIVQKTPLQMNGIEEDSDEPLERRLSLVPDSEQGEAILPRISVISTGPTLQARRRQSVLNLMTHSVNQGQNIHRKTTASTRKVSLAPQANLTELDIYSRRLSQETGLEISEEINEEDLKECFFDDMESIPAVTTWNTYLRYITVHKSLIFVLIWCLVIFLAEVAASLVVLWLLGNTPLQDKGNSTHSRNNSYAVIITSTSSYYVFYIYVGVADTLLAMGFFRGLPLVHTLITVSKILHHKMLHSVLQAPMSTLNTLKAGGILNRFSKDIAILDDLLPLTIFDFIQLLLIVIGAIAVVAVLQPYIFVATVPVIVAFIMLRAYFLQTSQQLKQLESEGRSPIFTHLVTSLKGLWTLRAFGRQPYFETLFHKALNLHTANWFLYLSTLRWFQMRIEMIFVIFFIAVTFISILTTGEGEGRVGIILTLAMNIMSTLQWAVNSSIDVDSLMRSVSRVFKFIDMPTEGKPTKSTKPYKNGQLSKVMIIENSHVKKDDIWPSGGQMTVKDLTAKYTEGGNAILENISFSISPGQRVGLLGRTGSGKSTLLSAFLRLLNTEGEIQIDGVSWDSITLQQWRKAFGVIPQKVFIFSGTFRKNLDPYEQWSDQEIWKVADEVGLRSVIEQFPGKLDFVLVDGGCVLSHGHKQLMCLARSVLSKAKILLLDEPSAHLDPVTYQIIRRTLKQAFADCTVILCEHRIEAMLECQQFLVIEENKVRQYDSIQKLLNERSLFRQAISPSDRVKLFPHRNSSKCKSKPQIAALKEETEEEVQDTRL
measurement-name: EC30

                                   compound                           subject_of_test                   result
0  COC1CCCCC1Oc1nc(-c2cc(F)cc(OCC(C)C)c2)ccc1C(=O)NS(=O)(=O)c1cccc(N)n1 (stereo not shown)  F508del (Homo sapiens, UniProt P13569, DEL508-508)  +++ (“+++” means <3 uM)
1  Cc1ccc(-c2ccc(C(=O)NS(=O)(=O)c3cccc(N)n3)c(N3C[C@@H](C)CC3(C)C)n2)c(F)c1  F508del (Homo sapiens, UniProt P13569, DEL508-508)  +++ (“+++” means <3 uM)
2  Cc1cc(C)c(Oc2nc(-c3ccc(OCC(C)C)cc3)ccc2C(=O)NS(=O)(=O)c2ccc[nH]c2=O)c(C)c1  F508del (Homo sapiens, UniProt P13569, DEL508-508)  +++ (“+++” means <3 uM)

###

target: F508del (Homo sapiens, UniProt P13569, DEL508-508); construct: expressed in transfected cells; assay: Protocol 1: membrane potential optical assay (FLIPR III, voltage sensing dye), identification of potentiator compounds; assay type: cell-based; conditions: Table 3, compounds of Table 1
measurement-name: EC30

>>> df
                                   molecule                           subject_of_test                   result
0  CC(C)COc1cc(F)cc(-c2ccc(C(=O)NS(=O)(=O)c3cccc(N)n3)c(OCCC3CCOCC3)n2)c1  F508del (Homo sapiens, UniProt P13569, DEL508-508)  +++ (“+++” means <3 uM)
1  CC(C)COc1cc(F)cc(-c2ccc(C(=O)NS(=O)(=O)c3cccnc3N)c(N3C[C@@H](C)CC3(C)C)n2)c1  F508del (Homo sapiens, UniProt P13569, DEL508-508)  +++ (“+++” means <3 uM)
2  COc1ccc(C)c(-c2nc(N3CC(C)CC3(C)C)c(C(=O)NS(=O)(=O)c3cccc(N)n3)cc2C)c1 (centres unmarked)  F508del (Homo sapiens, UniProt P13569, DEL508-508)  +++ (“+++” means <3 uM)
3  CC(C)[C@H](C)Nc1ccc(-c2ccc(C(=O)NS(=O)(=O)c3cccc(N)n3)c(N3[C@H](C)CC[C@@H]3C)n2)cn1  F508del (Homo sapiens, UniProt P13569, DEL508-508)  +++ (“+++” means <3 uM)

Looking for the measured EC30 of CC(C)c1ccc(-c2ccc(C(=O)NS(=O)(=O)c3cccc(N)n3)c(N3C[C@H](C)CC3(C)C)n2)cc1 , can you help?
+++ (“+++” means <3 uM)

Looking for the measured EC30 of CC(C)COc1cc(F)cc(-c2ccc(C(=O)NS(=O)(=O)c3ccn[nH]3)c(N3CCC(c4ccccc4)CC3)n2)c1 , can you help?
+++ (“+++” means <3 uM)

Looking for the measured EC30 of CCC1CCCN1c1nc(-c2cc(F)cc(OCC(C)C)c2)ccc1C(=O)NS(=O)(=O)c1cccc(N)n1 (centres unmarked) , can you help?
+++ (“+++” means <3 uM)

Looking for the measured EC30 of Cc1cc(C)c(Oc2ncc(-c3ccccc3C(C)C)cc2C(=O)NS(=O)(=O)c2cccc(N)n2)c(C)c1 , can you help?
+++ (“+++” means <3 uM)

Looking for the measured EC30 of CC(C)=Cc1ccc(C(=O)NS(=O)(=O)c2cccc(N)n2)c(N2C[C@@H](C)CC2(C)C)n1 , can you help?
+++ (“+++” means <3 uM)

Looking for the measured EC30 of CC1CN(c2ncc(-c3ccc(C(C)C)cc3)cc2C(=O)NS(=O)(=O)c2cccc(N)n2)C(C)(C)C1 (centres unmarked) , can you help?
+++ (“+++” means <3 uM)

###

target: F508del (Homo sapiens, UniProt P13569, DEL508-508); construct: expressed in transfected cells; assay: Protocol 2: FRET membrane potential optical assay (VIPR), identification of correction compounds; format: cell-based; settings: Table 3; compounds of Table 1 as modulators of CFTR activity; protocol not stated
measurement-name: EC30

Recorded EC30, per entry:
                                   compound                   result
0  CC(C)Oc1ccc(-c2ccc(C(=O)NS(=O)(=O)c3cccc(N)n3)c(N3CCCC(c4ccccc4)C3)n2)cn1 (stereo not drawn)  +++ (“+++” means <3 uM)
1  COc1ccccc1S(=O)(=O)NC(=O)c1cc2ccccc2n1Cc1c(C)cc(C)cc1C  +++ (“+++” means <3 uM)
2  CNc1cccc(S(=O)(=O)NC(=O)C2Cc3ccccc3CCN2Cc2c(C)cc(C)cc2C)n1 (stereo not drawn)  +++ (“+++” means <3 uM)
3  Cc1cc(C)c(Cn2c(C(=O)NS(=O)(=O)c3cccc(N)c3)cc3cc(C)ccc32)c(C)c1  +++ (“+++” means <3 uM)
4  Cc1cc(C)c(Oc2nc(C3CCC(C)(C)CC3)ccc2C(=O)NS(=O)(=O)c2cccc(N)n2)c(C)c1  +++ (“+++” means <3 uM)

Looking for the measured EC30 of CC(C)Oc1ccc(-c2ccc(C(=O)NS(=O)(=O)c3cccc(N)n3)c(N3C(C)CC4CCCCC43)n2)cn1 (stereo not drawn) , can you help?
+++ (“+++” means <3 uM)

Looking for the measured EC30 of CNc1cccc(S(=O)(=O)NC(=O)c2cc(C(C)(C)C)nn2Cc2c(C)cc(C)cc2C)c1 , can you help?
+++ (“+++” means <3 uM)

Looking for the measured EC30 of COc1cc(S(=O)(=O)NC(=O)c2ccc(C(C)(C)C)nc2Oc2c(C)cc(C)cc2C)ccn1 , can you help?
+++ (“+++” means <3 uM)

Looking for the measured EC30 of Cc1cc(C)c(Cn2nc(-c3c(C)cccc3C)cc2C(=O)NS(=O)(=O)c2cccc(N)c2)c(C)c1 , can you help?
+++ (“+++” means <3 uM)

Looking for the measured EC30 of Cc1ccc(Oc2nc3c(cc2C(=O)NS(=O)(=O)c2ccc[nH]c2=O)CCCC3(C)C)c(C)c1 , can you help?
+++ (“+++” means <3 uM)

###

biological target: F508del (Homo sapiens, UniProt P13569, DEL508-508); construct: expressed in transfected cells; assay: Protocol 2: FRET membrane potential optical assay (VIPR), identification of correction compounds; format: cell-based; conditions: F508del CFTR modulator activity; compounds of Table 1; read-out: EC30
Reported values of EC30 for individual entries

In [3]: df
Out[3]:
                                   compound            result
0  C[C@@H]1CN(c2nc(C3=CCCN(C(=O)CC(C)(C)C)C3)ccc2C(=O)NS(=O)(=O)c2cccc(N)n2)C(C)(C)C1  3000 to 10000 nM

Missing value: EC30, F508del (Homo sapiens, UniProt P13569, DEL508-508), entry CCOc1cccc(F)c1-c1ccc(C(=O)NS(=O)(=O)c2cccnc2N)c(N2C[C@@H](C)CC2(C)C)n1 . Fill in?
< 3000 nM

Missing value: EC30, F508del (Homo sapiens, UniProt P13569, DEL508-508), entry CC1CN(c2ncccc2C(=O)NS(=O)(=O)c2cccc(N3CCC[C@@H]3C(=O)OC(C)(C)C)n2)C(C)(C)C1 (stereo partly shown) . Fill in?
< 3000 nM

Missing value: EC30, F508del (Homo sapiens, UniProt P13569, DEL508-508), entry Cc1ccn(CCCNc2cccc(S(=O)(=O)NC(=O)c3cccnc3N3CC(C)CC3(C)C)n2)n1 (stereo not shown) . Fill in?
3000 to 10000 nM

Missing value: EC30, F508del (Homo sapiens, UniProt P13569, DEL508-508), entry CC1CN(c2ncccc2C(=O)NS(=O)(=O)c2cccc(N3CCC4CCCCC4C3)n2)C(C)(C)C1 (stereo not shown) . Fill in?
< 3000 nM

Missing value: EC30, F508del (Homo sapiens, UniProt P13569, DEL508-508), entry C[C@@H]1CN(c2nc(-c3cc(F)cc(F)c3)ccc2C(=O)NS(=O)(=O)c2ccc[nH]c2=O)C(C)(C)C1 . Fill in?
< 3000 nM

Missing value: EC30, F508del (Homo sapiens, UniProt P13569, DEL508-508), entry Cc1ccc(O)c(-c2ccc(C(=O)NS(=O)(=O)c3cccc(N)n3)c(N3C[C@@H](C)CC3(C)C)n2)c1 . Fill in?
< 3000 nM
